Property: C0; scope: individual compounds
procedureDetails: Pharmacokinetic screening in male CD-1 mice
Format: in vivo
measurementSetup: male, CD-1, in vivo, 1 mg/kg; mouse, 1.0 mpk iv; read-out: IV PK C0
Field note: include the unit after the figure.

Past entries and their recorded results:
[[record]]
compound = "C[C@H](CCCOc1ccccc1Cn1c(C(F)(F)F)cnc1-c1ccc(C#N)cc1)CC(=O)O [Compound 2f]"
result = "2450 ng/mL"

[[record]]
compound = "C[C@H](CCCOc1ccccc1Cn1c(C(F)(F)F)cnc1-c1ccc(Cl)cc1)CC(=O)O [Compound 2d]"
result = "1720 ng/mL"

[[record]]
compound = "C[C@H](CCCOc1ccccc1Cn1c(Cl)cnc1-c1ccc(C(F)(F)F)cc1)CC(=O)O [Compound 2b]"
result = "810 ng/mL"


Pending compound:
What value of measured C0 is listed for C[C@H](CCCOc1ccccc1Cn1c(C(F)(F)F)cnc1-c1ccc(C(F)(F)F)cc1)CC(=O)O [Compound 2a] ?
740 ng/mL

----------
procedureDetails: Pharmacokinetic screening in male CD-1 mice
Type: in vivo
measurementSetup: male, CD-1, in vivo, 1 mg/kg; mouse, 1.0 mpk iv; read-out: IV PK Vss
measureName: Vd
Note: a bare number is incomplete; add the unit.

May I ask what Vd has been recorded for C[C@H](CCCOc1ccccc1Cn1c(C(F)(F)F)cnc1-c1ccc(Cl)cc1)CC(=O)O ?
1.4 L/kg

What about this compound? C[C@H](CCCOc1ccccc1Cn1c(Cl)cnc1-c1ccc(C(F)(F)F)cc1)CC(=O)O
3.1 L/kg

Same again, this time with C[C@H](CCCOc1ccccc1Cn1c(C(F)(F)F)cnc1-c1ccc(C#N)cc1)CC(=O)O
0.6 L/kg

Also, C[C@H](CCCOc1ccccc1Cn1c(C(F)(F)F)cnc1-c1ccc(C(F)(F)F)cc1)CC(=O)O please.
1.9 L/kg

----------
procedureDetails: Pharmacokinetic screening in male CD-1 mice
Type: in vivo
measurementSetup: male, CD-1, in vivo, 3 mg/kg; mouse, 3.0 mpk po vs 1.0 mpk iv; read-out: Oral PK % F
molecules and their reported bioavailability
Hi! Could you send only the number? It should be in %, unit omitted.

Illustrative cases are given below, each with its answer.
[[record]]
structuresmilesstring = "C[C@H](CCCOc1ccccc1Cn1c(Cl)cnc1-c1ccc(C(F)(F)F)cc1)CC(=O)O"
numericvalue = 100

[[record]]
structuresmilesstring = "C[C@H](CCCOc1ccccc1Cn1c(C(F)(F)F)cnc1-c1ccc(Cl)cc1)CC(=O)O"
numericvalue = 61


Shifting focus to the molecule that follows.
State the recorded bioavailability for this entry: C[C@H](CCCOc1ccccc1Cn1c(C(F)(F)F)cnc1-c1ccc(C(F)(F)F)cc1)CC(=O)O
70

----------
Reported AUC(0-inf) values are given for each entry in this list.
procedureDetails: Pharmacokinetic screening in male Wistar rats
measurementSetup: in vivo, 1 mg/kg, rat, 1.0 mpk iv, read-out: IV PK AUC (0-inf)
// note: answer is a bare numeric in ng·h/mL

[[record]]
structuresmilesstring = "C[C@H](CCCOc1ccccc1Cn1c(C(F)(F)F)cnc1-c1ccc(C#N)cc1)CC(=O)O"
measurename = "AUC(0-inf)"
numericvalue = 4090

[[record]]
structuresmilesstring = "C[C@H](CCCOc1ccccc1Cn1c(C(F)(F)F)cnc1-c1ccc(C(F)(F)F)cc1)CC(=O)O"
measurename = "AUC(0-inf)"
numericvalue = 5040


Next compound, please.
Entry C[C@H](CCCOc1ccccc1Cn1c(Cl)cnc1-c1ccc(C(F)(F)F)cc1)CC(=O)O : reported AUC(0-inf) = ?
2970
